All figures here come from PubChem BioAssay AID1963970.

System: 931267-113-T-J1-PDC multicell spheroid viability;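 also: viability read 7 days after compound addition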
Experiment: Anticancer human tumor 931267-113-T-J1-PDC patient-derived colon adenocarcinoma cell line growth inhibition [PI3K]
Conditions: second compound 0.00316 µM; first compound 0.01 µM; stronger effect = lower value
Excerpt: Combinatorial screen of targeted agents with the PI3K inhibitors inavolisib, alpelisib, duvelisib, and copanlisib in multi-cell type tumor spheroids A high-throughput screen of multi-cell type tumor spheroids was designed to identify active combinations of targeted small molecules and PI3K pathway inhibitors. […] Compounds. […] If the clinical Cmax for an agent had not been determined, the highest concentration tested was 10 microM. […]
OUTCOME MEASURE: viability, T/C (%)
Please give a number only; it is taken to be in %.

Recorded viability, T/C (compound Cn1ncnc1[C@H]1c2n[nH]c(=O)c3cc(F)cc(c23)N[C@@H]1c1ccc(F)cc1 + CC(Nc1ccc2c(c1)OCCn1cc(N3C(=O)OCC3C(F)F)nc1-2)C(N)=O ): 111

Recorded viability, T/C (compound CC(C)n1nc(-c2ccc3oc(N)nc3c2)c2c(N)ncnc21 + CC(Nc1ccc2c(c1)OCCn1cc(N3C(=O)OCC3C(F)F)nc1-2)C(N)=O ): 91.5

Recorded viability, T/C (compound CC(=O)c1c(C)c2cnc(Nc3ccc(N4CCNCC4)cn3)nc2n(C2CCCC2)c1=O + COc1c(OCCCN2CCOCC2)ccc2c3n(c(=NC(=O)c4cnc(N)nc4)nc12)CCN3 ): 99.6

Recorded viability, T/C (compound Cn1ncnc1[C@H]1c2n[nH]c(=O)c3cc(F)cc(c23)N[C@@H]1c1ccc(F)cc1 + COc1c(OCCCN2CCOCC2)ccc2c3n(c(=NC(=O)c4cnc(N)nc4)nc12)CCN3 ): 98.7

Recorded viability, T/C (compound CC(C)n1nc(-c2ccc3oc(N)nc3c2)c2c(N)ncnc21 + COc1c(OCCCN2CCOCC2)ccc2c3n(c(=NC(=O)c4cnc(N)nc4)nc12)CCN3 ): 96

Recorded viability, T/C (compound CCN1CCN(Cc2ccc(Nc3ncc(F)c(-c4cc(F)c5nc(C)n(C(C)C)c5c4)n3)nc2)CC1 + CC(Nc1ccc2c(c1)OCCn1cc(N3C(=O)OCC3C(F)F)nc1-2)C(N)=O ): 99.3

Recorded viability, T/C (compound CCN1CCN(Cc2ccc(Nc3ncc(F)c(-c4cc(F)c5nc(C)n(C(C)C)c5c4)n3)nc2)CC1 + COc1c(OCCCN2CCOCC2)ccc2c3n(c(=NC(=O)c4cnc(N)nc4)nc12)CCN3 ): 105

Recorded viability, T/C (compound CC(=O)c1c(C)c2cnc(Nc3ccc(N4CCNCC4)cn3)nc2n(C2CCCC2)c1=O + CC(Nc1ccc2c(c1)OCCn1cc(N3C(=O)OCC3C(F)F)nc1-2)C(N)=O ): 111
